Tested on: Bacillus cereus ATCC14579
assay.text: Broth microdilution assay (MIC)
Format: cell-based
measurement.setup: 18 h, B. cereus ATCC14579, read-out: MIC
Procedure: The antibacterial activity of all compounds was evaluated by determining the minimum inhibitory concentration (MIC), which is defined as the lowest concentration of the compound at which no visible bacterial growth is detected. […] Antibacterial activity was evaluated using the Broth Microdilution Assay according to the Clinical and Laboratory Standard Institute’s Methods for Dilution Antimicrobial Susceptibility Test for Bacteria That Grow Aerobically; Approved Standard-Tenth Edition. […]

compound: ON=Cc1cc[n+](Cc2ccc(Cl)cc2)cc1 [Py-BnCl]
MIC: 5000 µg/mL
//
compound: ON=Cc1ccncc1 [Py-4-ox, pyridine-4-aldoxime, reference compound]
MIC: > 5000 µg/mL
//
compound: ON=Cc1cc[n+](Cc2ccc(OC(F)(F)F)cc2)cc1 [Py-BnOCF3]
MIC: 2500 µg/mL
//
compound: ON=Cc1cc[n+](Cc2ccc(C(F)(F)F)cc2)cc1 [Py-BnCF3]
MIC: 1250 µg/mL
//
compound: Cc1ccc(C[n+]2ccc(C=NO)cc2)cc1 [Py-BnCH3]
MIC: 5000 µg/mL
//
compound: ON=Cc1cc[n+](Cc2ccc(Br)cc2)cc1 [Py-BnBr]
MIC: 2500 µg/mL

----------
Counter-ions that a name gives are not always drawn.
Overview of recorded melting point for various molecules

molecule: ON=Cc1cc[n+](CCCCCCCCBr)cc1.[Br-] [Py-C8Br]
melting point: 100 to 101 °C

molecule: ON=Cc1cc[n+](Cc2ccc(C(F)(F)F)cc2)cc1 (as salt: bromide) [Py-BnCF3]
melting point: 186 to 187 °C

molecule: ON=Cc1cc[n+](CCCCCCCCCCCCBr)cc1.[Br-] [Py-C12Br]
melting point: 109 to 110 °C

molecule: ON=Cc1cc[n+](CCCCCCCCCCBr)cc1.[Br-] [Py-C10Br]
melting point: 103 to 105 °C

molecule: ON=Cc1cc[n+](Cc2ccc(OC(F)(F)F)cc2)cc1 (as salt: bromide) [Py-BnOCF3]
melting point: 175 to 176 °C

molecule: ON=Cc1cc[n+](Cc2ccc(F)cc2)cc1.[Br-] [Py-BnF]
melting point: 181 to 183 °C
